TGI values for the molecules below.
Test system: SF-268 CNS
Test: NCI tumour cell line growth inhibition, 48 h

Use these answered entries as a reference point.
Molecule	Outcome Measure	Measurement
Cn1c(-c2cccc([N+](=O)[O-])c2)[n+](C)c2ccccc21	TGI	> 100 µM
CC1(C)CCC[C@]2(C)[C@H]3[C@H](C#N)c4cc(O)c(O)cc4O[C@@]3(C)CC[C@@H]12	TGI	> 10 µM
N#Cc1cnc(N)nc1NCC1(CO)CC(CCc2ccccc2)C1 (stereo not drawn)	TGI	> 100 µM

Data request: So what's the measured TGI for this one? NCCCNCCCCNC(=O)C(O)NC(=O)CCCCCCN=C(N)N (stereo not drawn)
Data returned: > 5000 µM

Data request: Need TGI, item `CCCCn1c2c(n(CCCC)c1=S)-c1c(n(CCCC)c(=S)n1CCCC)SSc1c(n(CCCC)c(=S)n1CCCC)-c1c(n(CCCC)c(=S)n1CCCC)SSc1c(n(CCCC)c(=S)n1CCCC)-c1c(n(CCCC)c(=S)n1CCCC)SS2`
Data returned: > 30.2 µM

Data request: For the molecule `COCN1C(=O)[C@@H]2CCCN2C(=O)c2cc(N)ccc21` , what TGI is on record?
Data returned: > 100 µM

Data request: // lookup TGI for `COI1NC(=O)c2ccccc21`
Data returned: > 100 µM

Data request: Could you share which TGI value was measured for C=C1C2C[C@@H]3O[C@H]4C[C@H]5O[C@@]6(C[C@@H]7O[C@]8(C[C@H](C)[C@@H]9O[C@@H]%10CC(CO)O[C@@H]%10C[C@@H]9O8)C[C@H](C)[C@@H]7O6)C[C@H]5O[C@H]4[C@H](C)[C@H]3OC(=O)C[C@H]3CC[C@@H]4OC5[C@H]6O[C@]7(CC[C@H]8CC(=C)[C@H](CC[C@@H](C[C@H]1C)O2)O8)CC6O[C@@H]5[C@@H](O7)[C@H]4O3 (stereo partly drawn) ?
Data returned: > 0.874 µM

Data request: Fill blank: measured TGI of the molecule CCC(C#N)NCc1cccc(CNC(C#N)CC)c1 (stereo not drawn) is ____.
Data returned: > 100 µM

Data request: Need TGI, item `N#Cc1ccc(-n2c3ccccc3c3ccc4c(c32)C(=O)C=CC4=O)cc1`
Data returned: 9.12 µM

Data request: State the recorded TGI for this entry: `Cc1ncc(C(=O)Nc2ccc(CN3CCN(C)CC3)c(C(F)(F)F)c2)cc1C#Cc1cnc(N)cc1C#N`
Data returned: 3.33 µM

Data request: Given CCOC(=O)C(SCCO)C(C(=O)OCC)n1ccc(=O)[nH]c1=O (stereo not drawn) , state its recorded TGI.
Data returned: > 100 µM

Data request: Which value of TGI has been reported for `COc1ccc(-c2ccc(-c3ccc(C(=N)N)o3)o2)cc1` in the records?
Data returned: 7.22 µM

###

Test system: ACHN renal
Assay: NCI tumour cell line growth inhibition, 48 h
TGI for assorted compounds

Solved cases (2 shown):
Compound	Measurement Target	TGI
NCCCNCCCCNC(=O)C(O)NC(=O)CCCCCCN=C(N)N (stereo not drawn)	ACHN renal	> 5000 µM
COc1cc(-c2nc(SCCC(C)C)nc(Nc3ccc(S(N)(=O)=O)cc3)c2C#N)cc(OC)c1OC	ACHN renal	> 100 µM

Now consider a different compound.
Data request: Request the reported TGI associated with CC(=O)O[C@H]1[C@H](OC(=O)CC(C)(O)CC(=O)O)C[C@]2(C)C3=C(CCC2C1(C)C)[C@]1(C)CC[C@H]([C@H]2CC[C@H](C(C)(C)O)OC2O)[C@@]1(C)[C@@H](O)C3 (stereo partly drawn)
Data returned: 31.2 µM

src = PubChem BioAssay (NCI)
